- target_desc: Epidermal growth factor receptor (Homo sapiens) (UniProt P00533)
- Sequence (P00533 whole entry, looked up): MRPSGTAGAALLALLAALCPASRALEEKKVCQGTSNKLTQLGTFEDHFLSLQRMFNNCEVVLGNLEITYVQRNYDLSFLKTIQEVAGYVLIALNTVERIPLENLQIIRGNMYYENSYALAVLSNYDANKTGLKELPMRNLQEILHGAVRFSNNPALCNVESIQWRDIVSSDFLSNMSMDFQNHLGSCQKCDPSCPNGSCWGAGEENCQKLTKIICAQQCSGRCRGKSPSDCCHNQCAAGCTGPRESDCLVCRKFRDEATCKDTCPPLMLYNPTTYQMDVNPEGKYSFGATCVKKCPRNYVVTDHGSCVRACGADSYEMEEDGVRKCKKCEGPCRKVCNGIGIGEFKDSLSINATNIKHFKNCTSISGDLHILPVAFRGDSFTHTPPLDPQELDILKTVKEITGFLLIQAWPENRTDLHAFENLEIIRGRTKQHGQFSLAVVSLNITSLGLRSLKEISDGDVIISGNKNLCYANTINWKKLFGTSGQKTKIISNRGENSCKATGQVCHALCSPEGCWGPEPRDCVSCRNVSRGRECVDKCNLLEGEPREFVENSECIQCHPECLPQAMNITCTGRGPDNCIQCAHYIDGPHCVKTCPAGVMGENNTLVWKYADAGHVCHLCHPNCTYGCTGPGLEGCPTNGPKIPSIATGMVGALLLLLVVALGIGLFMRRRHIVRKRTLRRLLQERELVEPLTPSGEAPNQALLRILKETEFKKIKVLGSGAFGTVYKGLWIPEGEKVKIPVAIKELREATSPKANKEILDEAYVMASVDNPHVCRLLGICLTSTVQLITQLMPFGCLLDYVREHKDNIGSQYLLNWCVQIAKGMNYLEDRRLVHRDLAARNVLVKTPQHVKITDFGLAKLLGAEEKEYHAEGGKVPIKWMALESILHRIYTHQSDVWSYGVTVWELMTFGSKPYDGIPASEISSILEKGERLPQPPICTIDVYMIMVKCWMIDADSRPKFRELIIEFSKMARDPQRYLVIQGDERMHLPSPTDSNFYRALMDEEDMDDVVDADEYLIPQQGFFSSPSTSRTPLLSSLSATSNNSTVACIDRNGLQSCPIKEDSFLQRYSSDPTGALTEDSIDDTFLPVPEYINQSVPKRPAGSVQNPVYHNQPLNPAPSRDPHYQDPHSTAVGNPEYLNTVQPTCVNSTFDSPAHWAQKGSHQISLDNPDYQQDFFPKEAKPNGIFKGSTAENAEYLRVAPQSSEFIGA
- experiment_description: Assay for Inhibitors of the ERK Signaling Pathway using a Homogeneous Screening Assay: EGFR Kinase Inhibition
- measurement_context: homogeneous biochemical assay; series mostly up to 21.9 µM
Active and inactive are the calls of the source. Calls follow the shape of the dose curve; as a rule, active = well fitted curve in the direction sought with a large enough effect; inactive = no such curve, though single readings can be large or run the other way.
API: response.call in YES (active), NO (inactive)

The examples below pair each entry with its known result.
O=C1c2ccccc2C(=O)c2c1cccc2N1CCCC1: NO
CCn1c(=O)c2[nH]c(-c3ccccc3)nc2n(CC)c1=O: NO
CCN(CC)CCC(=O)Nc1cccc2c1C(=O)c1ccccc1C2=O: NO

Recorded test outcome, item "O=C(Nc1nc(-c2ccccc2)cs1)c1ccc(N2CCOCC2)c([N+](=O)[O-])c1"
NO

Recorded test outcome, item "Cc1ccc2nc(=O)c(NNc3ccccc3)cnc2c1"
YES

Recorded test outcome, item "Cc1ccc(NNc2c(C)nc3ccccc3nc2=O)cc1"
YES

----------
- target_desc: Epidermal growth factor receptor (Homo sapiens) (UniProt P00533)
- experiment_description: Assay for Inhibitors of the ERK Signaling Pathway using a Homogeneous Screening Assay: EGFR Kinase Inhibition
- measurement_context: homogeneous biochemical assay; series mostly up to 21.9 µM
Active and inactive are the calls of the source. Calls follow the shape of the dose curve; as a rule, active = well fitted curve in the direction sought with a large enough effect; inactive = no such curve, though single readings can be large or run the other way.
API: response.call in yes (active), no (inactive)

Recorded test outcome, item "CN(C)c1cccc2c1C(=O)c1ccccc1C2=O"
no

Recorded test outcome, item "O=C1c2ccccc2C(=O)c2c(NCCCN(CCO)CCO)cccc21"
no

----------
- target_desc: Epidermal growth factor receptor (Homo sapiens)
- experiment_description: Assay for Inhibitors of the ERK Signaling Pathway using a Homogeneous Screening Assay: EGFR Kinase Inhibition
- measurement_context: homogeneous biochemical assay; series mostly up to 21.9 µM
Active and inactive are the calls of the source. The call rests on the fitted dose curve; in most records, active means well fitted curve in the direction sought with a large enough effect; inactive means no such curve, though single readings can be large or run the other way.
API: response.call in active, inactive

The examples below pair each entry with its known result.
Fc1ccc(Nc2ncnc3sc4c(c23)CCC4)cc1F: active
CNc1cccc2c1C(=O)c1ccccc1C2=O: inactive

Shift focus to the following entry.
Recorded test outcome, item "Cc1nc2ccccc2nc(=O)c1NNc1ccccc1"
active
